- Test system: TK-10 renal
- Procedure Text: NCI-60 one-dose screen, 48 h (100 = growth as untreated, 0 = no growth, -100 = all killed)
- Condition: 10 µM unless noted
About 83,000 compounds went through this panel and 20% of them were active in at least one assay; those are over-represented in the sample as a whole. The source made the active and inactive calls. Rule for the calls: active = growth percent below 10; inactive = the rest.
Test Readout: growth

Completed entries (count: 5):
Molecule | growth
CCCCCCCCCCCCCCCCCC1=NCCCN1CCO | 116% (inactive)
O=C1C(=O)c2cccnc2-c2ncccc21 | -24% (active)
CN=C(N)N/N=C(\C)c1ccc2c(c1)Cc1ccccc1-2 | -75% (active)
CCc1cccc(CC)c1N1C(=O)C=CC1=O | 104% (inactive)
CCOc1ccc(C(C[N+](=O)[O-])Sc2ccccc2N)cc1 (stereo not drawn) | 106% (inactive)

Prompt line: # value lookup — system TK-10 renal, readout growth, item CC(=O)c1c(O)c(C)c(O)c2c1OC1=CC(=O)C(C(C)=O)C(=O)C12C (stereo not drawn)
Response line: 103% (inactive)

Prompt line: And what about the molecule `Cc1ccc(/C=C2\CNC/C(=C\c3ccc(C)cc3)C2=O)cc1` ?
Response line: 16.9% (inactive)

Prompt line: Queued: `O=C1CSC(=S)N1Cc1cccnc1`
Response line: 9.3% (active)

Prompt line: Queued: `O=[N+]([O-])c1cc(-c2ccccc2)c(O)c([N+](=O)[O-])c1`
Response line: 89.2% (inactive)

Prompt line: # iterate: `O=C1C(=O)c2cc([N+](=O)[O-])ccc2-c2ccccc21`
Response line: -85.2% (active)

Prompt line: Subsequent entry: `Nc1ccc(C(=O)/C=C/c2ccccc2)cc1`
Response line: 85.2% (inactive)

Prompt line: Can you check `O=C(O)c1cccc2cccc(-c3c4ccc(=O)c(O)c-4oc4c(O)c(O)ccc34)c12` next?
Response line: 110% (inactive)

====

- System: IGROV1 ovarian
- Procedure Text: NCI-60 one-dose screen, 48 h
- Condition: 10 µM unless noted
The panel holds about 83,000 compounds, 20% with a hit somewhere; the sample as a whole holds those more often. Calls of active or inactive are those of the source. Rule for the calls: active = growth percent below 10; inactive = the rest.
Pick from Yes (active), No (inactive) when you respond.

Substance Smiles | Class
CN(C)c1ccc(/C=C/c2cc[n+](C)c(/C=C/c3ccc(N(C)C)cc3)c2)cc1 | No
Clc1ccc(Cc2nc3ccccc3s2)cc1 | No
CCc1oc2ccccc2c1C(=O)c1cc(Br)c(O)c(Br)c1 | No

Please examine the following record next.
Prompt line: Give the logged outcome of this assay for the following compound: `C/C=C/c1cc2c(c(=O)o1)C(=O)[C@@H](O)[C@H](C)O2`
Response line: Yes

====

- Tested on: HT29 colon
- Procedure Text: NCI-60 one-dose screen, 48 h (100 = growth as untreated, 0 = no growth, -100 = all killed)
- Condition: 10 µM unless noted
About 83,000 compounds went through this panel and 20% of them were active in at least one assay; those are over-represented in the sample as a whole.
Test Readout: growth (%)
Reply numerically in %, unit not repeated.

Compound | Observed Measurement
Nc1nc2ncc(CNc3ccc(C(=O)NC(CCC(=O)NC(CCC(=O)NC(CCC(=O)NC(CCC(=O)NC(CCC(=O)O)C(=O)O)C(=O)O)C(=O)O)C(=O)O)C(=O)O)cc3)nc2c(=O)[nH]1 (configuration not stated) | 107
O=[N+]([O-])/C(=C/c1ccccc1)c1ccccc1 | 99
O=C1/C(=C/c2ccccc2)CCC/C1=C\c1ccccc1 | 30.5
O=C(NNc1ccccc1)OCc1ccccc1 | 97.7
O=C(Nc1ccc(Cl)c(Cl)c1)Nc1ccccc1O | 112

Prompt line: Item under review: CCC1CCCCN1C(=S)N/N=C(\C)c1ccccn1 (configuration not stated) . Reported growth?
Response line: -19.5

Prompt line: And then `Cc1cc(C(=O)c2ccc(Cl)cc2)ccc1O` , what is it?
Response line: 99.1

====

- Tested on: SK-OV-3 ovarian
- Procedure Text: NCI-60 one-dose screen, 48 h
- Condition: 10 µM unless noted
This is part of a sample that, as a whole, favours compounds with a hit. Of some 83,000 tested, about 20% had one in any assay. Active and inactive are the calls of the source. The calls were made as follows: active = growth percent below 10; inactive = the rest.
Choose one outcome from this list and give only that: active, inactive

Completed entries (count: 5):
Molecule | Class
COc1ccc(/C=C2/C(=O)ON=C2C)cc1 | inactive
O=C1CSC(=S)N1Cc1cccnc1 | inactive
COc1cc(OC)c(/C=C/c2c3ccccc3cc[n+]2C)c(OC)c1 | inactive
CN(C)CCN(C)CC(C)(C)C(=O)/C=C/c1ccc(Cl)c(Cl)c1 | active
CCCCCC[C@@H](O)C/C=C\CCCCCCCC(=O)OCCOC | inactive

Prompt line: Hello, I am checking results. What call was entered for CCCCCCCCCCCC[S+](C)CC(=O)[O-] (stereo not drawn) ?
Response line: inactive

Prompt line: Queued: `CCc1cccc(CC)c1N1C(=O)C=CC1=O`
Response line: inactive

Prompt line: Then this molecule: CCC1CCCCN1C(=S)N/N=C(\C)c1ccccn1 (stereo not drawn)
Response line: active

Prompt line: Next molecule up: `CN(C)c1ccc(/C=C/c2cc[n+](C)c(/C=C/c3ccc(N(C)C)cc3)c2)cc1`
Response line: active

Prompt line: How about `Clc1ccc(Cc2nc3ccccc3s2)cc1` ?
Response line: inactive

Prompt line: Okay, and `CCCCCCCCCCCC1=NCCCN1CCCC` ?
Response line: inactive

Prompt line: Follow-up item: `O=C(/C=C/C(Cl)(Cl)Cl)Nc1ccc(Cl)cc1`
Response line: inactive

Prompt line: Now consider COc1ccc(C(OCC2OC(n3ccc(NC(=O)c4ccccc4)nc3=O)C(O)C2O)(c2ccccc2)c2ccccc2)cc1 (stereo not drawn) .
Response line: inactive

Prompt line: Now give it for `S=C1SCN(Cc2cccs2)CN1Cc1cccs1` too.
Response line: inactive

Prompt line: What would you report for CCCCCCCCCCCCCCCCCC[S+](C)CC (stereo not drawn) ?
Response line: inactive

Prompt line: Repeat for the following molecule: `CN(Cc1ccccc1)c1ccc(SC#N)cc1`
Response line: inactive

Prompt line: Also need `OCCOSCCO` , thanks.
Response line: inactive

Prompt line: Next entry: `O=C1C=C(Cl)C(=O)c2ccccc21`
Response line: inactive

Prompt line: Lookup `Nc1cc(-c2ccccc2)ccc1O`
Response line: inactive

Prompt line: And what about the molecule `O=C1C=CC(=O)N1c1ccc(O)cc1` ?
Response line: inactive

Prompt line: Try this molecule next: `CCC(=O)c1cc([N+](=O)[O-])c(Br)s1`
Response line: inactive

Prompt line: Now the same for `CSc1nc(C)c(C(=O)CCN2CCN(c3ccccn3)CC2)s1`
Response line: inactive

Prompt line: What would you report for Nc1nc2ncc(CNc3ccc(C(=O)NC(CCC(=O)NC(CCC(=O)NC(CCC(=O)NC(CCC(=O)NC(CCC(=O)O)C(=O)O)C(=O)O)C(=O)O)C(=O)O)C(=O)O)cc3)nc2c(=O)[nH]1 (stereo not drawn) ?
Response line: inactive

====

- Test system: NCI-H460 lung
- Procedure Text: NCI-60 one-dose screen, 48 h
- Condition: 10 µM unless noted
The panel holds about 83,000 compounds, 20% with a hit somewhere; the sample as a whole holds those more often. Activity calls are given as the source filed them. How the source made its calls: active means growth percent below 10; inactive means the rest.
Just give me one of these, please: Yes = active, No = inactive

Here are 10 compounds together with their reported answers.
Compound | Class
CCCCCCCCCCCC[N+]1(CCCCCCCCCCCC)CCCC(C)C1 (centres undefined) | Yes
CCCCCCCCCCCC[S+](C)CC(=O)[O-] (centres undefined) | No
O=C(Nc1ccc(Cl)c(Cl)c1)OCc1ccco1 | No
O=C1Nc2ccc(Br)cc2C1=O | No
NC(CS/C(Cl)=C/Cl)C(=O)O (centres undefined) | Yes
O=C(Cc1nc2cc(Cl)c(Cl)cc2nc1CC(=O)c1ccccc1)c1ccccc1 | No
Cc1ccccc1NC(=O)Cc1csc2[n+]1C(=O)/C(=C/c1ccc([N+](=O)[O-])cc1)S2 | No
Cc1cc(=O)oc2cc(O)cc(O)c12 | No
CC12CCC(O)CC1=CCC1C2CCC2(C)C3=NN=CC3CC12 (centres undefined) | No
Oc1ccc2ccccc2c1N=Nc1ccccn1 | No

Prompt line: Fill in: this test's call for `Cn1ccc(=Nc2ccc(NC(=O)c3ccc(N=c4ccn(C)c5ccc([N+](=O)[O-])cc45)cc3)cc2)cc1` is ___
Response line: No

Prompt line: Can you check `COc1c(C)c2c(c(O)c1C/C=C(\C)CCC(=O)O)C(=O)OC2` next?
Response line: Yes

Prompt line: Quick one: `c1csc(-c2[nH]nc3c2CCc2ccccc2-3)c1`
Response line: No

Prompt line: Likewise for `Cc1c(O)ccc(SC#N)c1C` ?
Response line: No

Prompt line: And for CCOc1ccc2c(c1)/C(=C\C=C\C1CC(C)C3CC(OCC)CCC3N1CC)CC(C)N2CC (centres undefined) ?
Response line: Yes

Prompt line: Another compound to check: `Cc1cc2nc(CC(=O)c3ccncc3)c(=O)[nH]c2cc1C`
Response line: No

Prompt line: Then what about the compound `Fc1ccc(NCCS)cc1` ?
Response line: No

Prompt line: Next record, please: `Cc1cc(C(=C2C=CC(=Nc3ccccc3)C=C2)c2ccc(Nc3ccccc3)cc2)ccc1N`
Response line: Yes

Prompt line: For `c1ccc(-c2cccc(-c3ccccn3)n2)nc1` then?
Response line: Yes

Reference source: PubChem BioAssay (NCI)
